# target: KRAS (G12V)::SOS1 (Homo sapiens (Human), UniProt P01116, C118S/G12V)
# Sequence (P01116 other isoform, or with tags, fused parts or gaps G12V/C118S): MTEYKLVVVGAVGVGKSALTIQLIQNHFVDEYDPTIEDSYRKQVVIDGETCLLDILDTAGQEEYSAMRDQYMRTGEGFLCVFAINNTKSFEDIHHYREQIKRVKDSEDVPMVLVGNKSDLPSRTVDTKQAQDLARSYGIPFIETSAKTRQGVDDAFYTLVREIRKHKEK
# procedure.details: KRAS::SOS1 AlphaScreen binding assay, KRAS G12V
readout.label: pIC50
The meaning of pIC50 here: minus log10 of the concentration in molar units.

Here are 5 compounds together with their reported answers.
molecule=C[C@H](Oc1cc(-n2ccc(-c3cn(C4CCOCC4)nn3)n2)nc(-c2noc3c2CCC[C@@]32CCCc3sc(N)c(C#N)c32)n1)[C@@H]1CCCN1C target="KRAS (G12V)::SOS1 (Homo sapiens (Human), UniProt P01116, C118S/G12V)" readout_label=pIC50 reported_measurement=8.70
molecule=Cc1ccc(-c2cc(O[C@@H](C)[C@@H]3CCCN3C)nc(-c3onc4c3CCC[C@@]43CCCc4sc(N)c(C#N)c43)n2)cn1 target="KRAS (G12V)::SOS1 (Homo sapiens (Human), UniProt P01116, C118S/G12V)" readout_label=pIC50 reported_measurement=8.52
molecule=CO[C@H]1CCN(C)[C@@H]1[C@H](C)Oc1cc(N2CCNC3(CC3)C2)nc(-c2noc3c2CCC[C@@]32CCCc3sc(N)c(C#N)c32)n1 target="KRAS (G12V)::SOS1 (Homo sapiens (Human), UniProt P01116, C118S/G12V)" readout_label=pIC50 reported_measurement=8.70
molecule=C[C@H](Oc1cc(-c2cnn(C)n2)nc(-c2noc3c2CCC[C@@]32CCCc3sc(N)c(C#N)c32)n1)[C@@H]1C[C@@H](F)CN1C target="KRAS (G12V)::SOS1 (Homo sapiens (Human), UniProt P01116, C118S/G12V)" readout_label=pIC50 reported_measurement=7.92
molecule=C[C@H](Oc1cc(N2CC[C@H](N(C)C)C2)nc(-c2noc3c2CCC[C@@]32CCCc3sc(N)c(C#N)c32)n1)[C@@H]1CCCN1C target="KRAS (G12V)::SOS1 (Homo sapiens (Human), UniProt P01116, C118S/G12V)" readout_label=pIC50 reported_measurement=7.27

Task item: Identify measured pIC50 associated with C[C@H](Oc1cc(-c2ccn([C@H]3CCCOC3)n2)nc(-c2noc3c2CCC[C@@]32CCCc3sc(N)c(C#N)c32)n1)[C@@H]1CCCN1C
Reply: 8.70

Task item: Return the recorded pIC50 value; entry: C[C@H](Oc1cc(-n2ccc(-c3ccccn3)n2)nc(-c2noc3c2CCC[C@@]32CCCc3sc(N)c(C#N)c32)n1)[C@@H]1CCCN1C
Reply: 8.70

Task item: Give pIC50 for the following compound: C[C@H](Oc1cc(-c2ccncc2)nc(-c2noc3c2CCC[C@@]32CCCc3sc(N)c(C#N)c32)n1)[C@@H]1CCCN1C
Reply: 8.52

###

# procedure.details: Metabolic (microsomal) stability assay, human liver microsomes (HLM)
# Assay type: in vitro ADME
# condition.summary: predicted clearance as percent of liver blood flow, 1 μM
HLM QH for assorted compounds
Number only, in %; omit the unit.

Examples with their reported HLM QH follow.
molecule=C[C@H](Oc1cc(N2CCN(C)C2=O)nc(-c2noc3c2CCC[C@@]32CCCc3sc(N)c(C#N)c32)n1)[C@@H]1CCCN1C readout_label="HLM QH" measure_unit=% reported_measurement=38
molecule=CO[C@H]1CCN(C)[C@@H]1[C@H](C)Oc1cc(N2CCNC3(CC3)C2)nc(-c2onc3c2CCC[C@@]32CCCc3sc(N)c(C#N)c32)n1 readout_label="HLM QH" measure_unit=% reported_measurement=40

Task item: Read off the recorded HLM QH for C[C@H](Oc1cc(-n2cc3c(n2)CNC3)nc(-c2noc3c2CCC[C@@]32CCCc3sc(N)c(C#N)c32)n1)[C@@H]1C[C@@H](F)CN1C
Reply: 76
